Tested on: KB-3-1
Experiment: Cytotoxic Profiling of Annotated Libraries Using Quantitative High-Throughput Screening (AID 1296008); also: nearly all actives have a fitted effect of over 60% in size
Details: Five cell lines viability, CellTiter-Glo ATP luminescence, 48-72 h
Inconclusive results are not listed. The source made the active and inactive calls. Calls follow the shape of the dose curve; as a rule, active = well fitted inhibition curve with a large enough effect; inconclusive = small, poorly fitted or top-dose-only effect; inactive = flat fitted curve, though single readings scatter. Non-standard residues stand in square brackets, D forms with d. Residues, ends and D or L forms follow the SMILES beside them. *: point of attachment. Nva = CCC[C@H](N)C(=O)O; Cbz = O=C(OCc1ccccc1)*
Hi! Could you answer with just one of these? T (active), F (inactive)

O=C1NC(=O)C(=Cc2ccc3nccc(-c4ccncc4)c3c2)S1 :: T
FC(F)c1nc2ccccc2n1-c1nc(N2CCOCC2)nc(N2CCOCC2)n1 :: T
CC1(C)O[C@@H]2C[C@H]3[C@@H]4CCC5=CC(=O)C=C[C@]5(C)[C@@H]4[C@@H](O)C[C@]3(C)[C@]2(C(=O)CO)O1 :: F

What was the test verdict on Cc1noc(-c2ccc(CSCCC(=O)O)cc2)c1NC(=O)OC(C)c1ccccc1Cl (stereo unspecified) ?
F

State the result this test recorded for `CC(=O)N[C@@H]1[C@H](O[C@@H]2c3ccc(c(Cl)c3)Oc3cc4cc(c3O[C@H]3O[C@H](CO)[C@@H](O)[C@H](O)[C@H]3NC(=O)CCCCCCCC(C)C)Oc3ccc(cc3Cl)C[C@H]3NC(=O)[C@H](N)c5ccc(O)c(c5)Oc5cc(O)cc(c5)[C@H](NC3=O)C(=O)N[C@H]4C(=O)N[C@H]3C(=O)N[C@@H]2C(=O)N[C@@H](C(=O)O)c2cc(O)cc(O[C@H]4O[C@H](CO)[C@@H](O)[C@H](O)[C@H]4O)c2-c2cc3ccc2O)O[C@H](CO)[C@@H](O)[C@@H]1O` .
F

// outcome(item) with item = COc1ccc2c(c1OC)C(=O)OC2[C@H]1c2c(cc3c(c2OC)OCO3)CCN1C (stereo partly specified)
T

Status in this test for `C[C@@H](Oc1ccc2[nH]nc(C=Cc3cnn(CCO)c3)c2c1)c1c(Cl)cncc1Cl` ?
T

Query: recorded result category for CCC[C@@H](C=O)NC(=O)[C@H](CC(C)C)NC(=O)[C@H](CC(C)C)NC(=O)OCc1ccccc1 (Cbz-Leu-Leu-[Nva]-aldehyde) in this test
T

What classification did OCCNC1CCCc2c1[nH]c1ccc(-c3ccccc3)cc21 (stereo unspecified) end up with in this test?
T

Field: outcome | Entry: `CCCCCCCCCCCCCCCC(=O)OC[C@@H](NC(=O)C(Cl)Cl)[C@H](O)c1ccc([N+](=O)[O-])cc1`
F

Recorded test call requested for `Cn1cc(C=CC(=O)c2cccc(F)c2)cc1C=CC(=O)NO`
F

// return assay outcome for `Nc1nc(N)c2nc(-c3cccc(O)c3)c(-c3cccc(O)c3)nc2n1`
T

Entry `COc1cc(C)c(C=CC(C)=CC=CC(C)=CC(=O)O)c(C)c1C` : call = ?
F

Dear colleague, could you share the recorded outcome for Cn1cc(C2=C(c3c4n(c5ccccc35)CCC(CN)C4)C(=O)NC2=O)c2ccccc21 (stereo unspecified) when you have a moment?
T

Look up the recorded call for `C=Cc1c(C)c2cc3nc(cc4[nH]c(cc5nc(cc1[nH]2)C(C)=C5CCC(=O)O)c(CCC(=O)OC)c4C)[C@@]1(C)C3=CC=C(C(=O)OC)[C@H]1C(=O)OC` in this test.
F

What is the recorded call for this molecule in the test? `CC(C=CC1=C(C)CCCC1(C)C)=CC=CC(C)=CC(=O)Nc1ccc(O)cc1`
T
